- Tested on: HepG-2
- measurement_protocol: Anti-proliferative activity, SRB colorimetric assay
- Type: cell-based
- experimental_context: authors' grading of Table 1 values, key not given
readout_type: anti-proliferative activity against HepG-2, in words

compound	result
N#Cc1c(-c2cccs2)cc(-c2ccc(O)cc2)nc1N [2a]	very strong
CCOC(=O)CSC(=S)N1N=C(c2ccc(O)cc2)CC1c1cccs1 (centres unmarked) [17a]	weak
N#Cc1c(N)c2c(-c3cccs3)cc(-c3ccc(O)cc3)nc2[nH]c1=O [6a]	strong
Oc1ccc(C2=NNC(c3cccs3)C2)cc1 (centres unmarked) [7a]	very strong
O=C(SC(=S)N1N=C(c2ccc(O)cc2)CC1c1cccs1)c1ccccc1 (centres unmarked) [18a]	strong

Tell me measured anti-proliferative activity against HepG-2, in words for CC(=O)c1c(-c2cccs2)cc(-c2ccc(O)cc2)[nH]c1=O [3a] please. moderate

====

- Tested on: HepG-2
- measurement_protocol: Anti-proliferative activity, SRB colorimetric assay
- Type: cell-based
- experimental_context: Homo sapiens, HepG2; HepG-2 cancer cell line, SRB assay; read-out: Cell lines (IC50 μM) HepG-2
Rule: IC50 below 30 µM gives TRUE. Equal to or above 30 µM gives FALSE.

Illustrative cases are given below, each with its answer.
compound	label_value
CCOC(=O)CSC(=S)N1N=C(c2ccc(O)cc2)CC1c1cccs1 (centres unmarked) [17a]	FALSE
NC(=S)n1nc(-c2ccc(Cl)c(Cl)c2)cc1-c1cccs1 [10b]	TRUE
Oc1ccc(C2=NNC(c3cccs3)C2)cc1 (centres unmarked) [7a]	TRUE
O=C(O)CSC(=S)N1N=C(c2ccc(O)cc2)CC1c1cccs1 (centres unmarked) [19a]	TRUE
O=C(CCl)SC(=S)N1N=C(c2ccc(O)cc2)CC1c1cccs1 (centres unmarked) [20a]	FALSE
Oc1ccc(-c2cc(-c3cccs3)n(-c3nc4nc5ccccc5nc4s3)n2)cc1 [12a]	FALSE
CCOC(=O)c1c(-c2cccs2)cc(-c2ccc(O)cc2)[nH]c1=O [4a]	FALSE
CCOC(=O)CN1N=C(c2ccc(O)cc2)CC1c1cccs1 (centres unmarked) [15a]	TRUE

Strictly below 30 µM in IC50? Clc1ccc(C2=NN(c3ccccc3)C(c3cccs3)C2)cc1Cl (centres unmarked) [9b] FALSE

Strictly below 30 µM in IC50? N#Cc1c(-c2cccs2)cc(-c2ccc(O)cc2)nc1N [2a] TRUE

Strictly below 30 µM in IC50? N#Cc1c(-c2cccs2)cc(-c2ccc(Cl)c(Cl)c2)nc1N [2b] FALSE

Strictly below 30 µM in IC50? O=C(SC(=S)N1N=C(c2ccc(O)cc2)CC1c1cccs1)c1ccccc1 (centres unmarked) [18a] TRUE

Strictly below 30 µM in IC50? NS(=O)(=O)c1ccc(NC(=O)CN2N=C(c3ccc(O)cc3)CC2c2cccs2)cc1 (centres unmarked) [16a] FALSE

Strictly below 30 µM in IC50? Oc1ccc(-c2cc(-c3cccs3)nc(/N=C/c3ccccc3O)n2)cc1 [13a] FALSE

Strictly below 30 µM in IC50? Nc1nc(-c2ccc(O)cc2)cc(-c2cccs2)n1 [11a] FALSE

Strictly below 30 µM in IC50? O=C(/C=C/c1cccs1)c1ccc(Cl)c(Cl)c1 [1b] FALSE

Strictly below 30 µM in IC50? NC(=S)n1nc(-c2ccc(O)cc2)cc1-c1cccs1 [10a] FALSE

Strictly below 30 µM in IC50? O=C(/C=C/c1cccs1)c1ccc(O)cc1 [1a] FALSE

Strictly below 30 µM in IC50? CC(=O)c1c(-c2cccs2)cc(-c2ccc(O)cc2)[nH]c1=O [3a] FALSE

Strictly below 30 µM in IC50? N#Cc1c(N)c2c(-c3cccs3)cc(-c3ccc(O)cc3)nc2[nH]c1=O [6a] TRUE

Strictly below 30 µM in IC50? CC(=O)N1N=C(c2ccc(Cl)c(Cl)c2)CC1c1cccs1 (centres unmarked) [8b] FALSE

Strictly below 30 µM in IC50? N#Cc1c(-c2cccs2)cc(-c2ccc(O)cc2)nc1O [5a] FALSE
